# Test system: Troponin I, cardiac muscle (Homo sapiens) + Troponin T, cardiac muscle (Homo sapiens) + Troponin C, slow skeletal and cardiac muscles (Homo sapiens) (UniProt P19429+P45379+P63316)
# Measurement protocol: cardiac RTF calcium sensitivity activators, confirmation, biochemical, IANBD-TnC fluorescence, triplicate (AID 504383);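 further: 0% = DMSO at 0.472 mM calcium and 100% = DMSO at 2.9 mM calcium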
# Conditions: IANBD-labeled cardiac RTF, Ca2+ sensitivity fluorescence; at 7.2 µM; stronger effect = higher value; scaled from EC20 to saturating calcium; tested at EC20 calcium, 0.472 mM
About 1,200 (48%) of roughly 2,500 compounds were called active. The set was probably picked from earlier hits. The list shows a part of the results.
Class rule met: activation at least 7%. Class rule not met: activation below 7%.

[
  {
    "Cpd smiles": "CN(C)c1ccc(/C=C/C(=O)c2ccc(O)cc2)cc1",
    "Category label": "rule not met"
  },
  {
    "Cpd smiles": "S=c1[nH]nc(-c2ccc(Cl)cc2)n1-c1ccc2c(c1)OCCO2",
    "Category label": "rule met"
  },
  {
    "Cpd smiles": "NC(=O)c1c[nH]c2ccccc12",
    "Category label": "rule met"
  },
  {
    "Cpd smiles": "Cc1ccc(-n2c(C)n[nH]c2=S)cc1",
    "Category label": "rule not met"
  },
  {
    "Cpd smiles": "CN1CCC/C1=C/C=C1\\SC(=S)NC1=O",
    "Category label": "rule not met"
  },
  {
    "Cpd smiles": "CCCCN1C(=O)/C(=C/C=C2/CC(C)(C)CN2C)SC1=S",
    "Category label": "rule not met"
  },
  {
    "Cpd smiles": "OCCc1c[nH]c2ccccc12",
    "Category label": "rule not met"
  },
  {
    "Cpd smiles": "Cc1ccc(NC(=O)COc2ccc(/C=N/NC(=O)CSCc3ccccc3)cc2)cc1",
    "Category label": "rule met"
  },
  {
    "Cpd smiles": "CN1C(=O)/C(=C\\C=C2/CCCN2C)N(C)C1=S",
    "Category label": "rule met"
  },
  {
    "Cpd smiles": "O[C@@H]1CN(C2CCCCC2)CC[C@H]1N1CCN(CCc2ccccc2)CC1",
    "Category label": "rule met"
  },
  {
    "Cpd smiles": "CCN1C(=O)/C(=C/C=C2/CCCN2C)OC1=S",
    "Category label": "rule met"
  },
  {
    "Cpd smiles": "O=C1CCC[C@@H]2C[C@@]3(C[C@@H]4CCN1[C@H]24)Nc1cc([N+](=O)[O-])ccc1NC3=NC1CCCCC1",
    "Category label": "rule met"
  }
]

====

# Test system: Troponin I, cardiac muscle (Homo sapiens) + Troponin T, cardiac muscle (Homo sapiens) + Troponin C, slow skeletal and cardiac muscles (Homo sapiens) (UniProt P19429+P45379+P63316)
# Measurement protocol: cardiac RTF calcium sensitivity activators, confirmation, biochemical, IANBD-TnC fluorescence, triplicate (AID 504383);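 further: 0% = DMSO at 0.472 mM calcium and 100% = DMSO at 2.9 mM calcium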
# Conditions: IANBD-labeled cardiac RTF, Ca2+ sensitivity fluorescence; at 7.2 µM; stronger effect = higher value; scaled from EC20 to saturating calcium; tested at EC20 calcium, 0.472 mM
Screen size: about 2,500 compounds; about 1,200 (48%) were called active. The set was probably picked from earlier hits. This is one part of the list.

[
  {
    "Compound": "O=C1Nc2ccccc2/C1=C/c1cnc(-c2ccccc2)[nH]1",
    "activation / %": 92.3
  },
  {
    "Compound": "COc1ccc(/C=N/N=C2/CC(C)(C)Cc3n[nH]c(=O)cc32)cc1",
    "activation / %": 955
  },
  {
    "Compound": "Cc1cc(-c2ccccc2C(=O)NC2CCCCC2)on1",
    "activation / %": 6.39
  },
  {
    "Compound": "CCOC(=O)c1sc(N)c(C#N)c1COC(=O)CNC(=O)c1ccccc1",
    "activation / %": 8.8
  },
  {
    "Compound": "Fc1ccc(CN2CC[C@H]3C=CCc4cccc(c43)C2)cc1",
    "activation / %": 144
  },
  {
    "Compound": "CCOC(=O)c1cc2n(c1N)-c1ccccc1C2=O",
    "activation / %": 71.8
  },
  {
    "Compound": "CCOC(=O)C1=C(C)N=c2s/c(=C/c3ccc(OCC(=O)O)cc3)c(=O)n2C1c1ccc(SC)cc1 (stereo not drawn)",
    "activation / %": 5.43
  },
  {
    "Compound": "O=C(Nc1cc2c3c(c1)CC(=O)N3CCC2)C1CC1",
    "activation / %": 10.7
  },
  {
    "Compound": "COc1ccc(C2OC34CCCCC3C(C#N)(C#N)C2(C#N)C(=N)O4)cc1 (stereo not drawn)",
    "activation / %": 5.98
  },
  {
    "Compound": "C=CCNC(=O)NC(=O)COC(=O)CC(NC(N)=O)c1ccc(Cl)cc1 (stereo not drawn)",
    "activation / %": 154
  },
  {
    "Compound": "N#CC1=C(N)Oc2cc(O)c(Cl)cc2C1c1ccccc1F (stereo not drawn)",
    "activation / %": 162
  },
  {
    "Compound": "CN(CC(=O)Nc1ccccc1Cl)C(=O)c1cc(=O)[nH]c2ccccc12",
    "activation / %": 49.3
  },
  {
    "Compound": "O=C(COC(=O)C1(c2ccccc2F)CCCC1)Nc1ncc(C(F)(F)F)cc1Cl",
    "activation / %": 4.8
  },
  {
    "Compound": "CCCCCCCCOc1ccc(C2OC34CCCCC3C(C#N)(C#N)C2(C#N)C(=N)O4)cc1 (stereo not drawn)",
    "activation / %": 17.2
  },
  {
    "Compound": "C=CCN1C(=O)C(Cc2cccc(Cl)c2)S/C1=N/N=C/c1ccco1 (stereo not drawn)",
    "activation / %": 6.48
  },
  {
    "Compound": "O=C1c2ccccc2-c2c1cccc2C(=O)N1CCCCCC1",
    "activation / %": 9.57
  },
  {
    "Compound": "Cc1cc(Cl)ccc1OCC(=O)NCCOc1nc(N2CCOCC2)nc(N2CCOCC2)n1",
    "activation / %": 6.88
  },
  {
    "Compound": "COc1cc2c3nnc(-c4ccc(F)cc4)c-3cn(Cc3ccc(C)cc3)c2cc1OC",
    "activation / %": 3.15
  },
  {
    "Compound": "CCOC(=O)c1ccccc1-n1nnnc1C",
    "activation / %": 1.99
  },
  {
    "Compound": "Cn1nc(-c2ccccc2)c(C(=O)Nc2ccc(C(F)(F)F)cc2)c1Cl",
    "activation / %": 26.2
  },
  {
    "Compound": "O=C1NC(=S)/C(=C\\c2ccc(-c3ccccc3Cl)o2)S1",
    "activation / %": 14.2
  },
  {
    "Compound": "COc1cccc(F)c1C(=O)NC(=O)Nc1ccc2nc(C)oc2c1",
    "activation / %": 252
  },
  {
    "Compound": "Cc1cc(C)c(/C=C2\\C(=O)Nc3ccccc32)[nH]1",
    "activation / %": 14.2
  },
  {
    "Compound": "CCOC(=O)c1sc(N)c(C#N)c1COC(=O)CNC(=O)c1cc(OC)c(OC)c(OC)c1",
    "activation / %": 67.4
  },
  {
    "Compound": "Cc1noc(/C=C/c2ccc(-c3ccccc3Cl)o2)c1[N+](=O)[O-]",
    "activation / %": -1.31
  },
  {
    "Compound": "CN(C)S(=O)(=O)c1ccc(C(=O)Oc2cc(=O)[nH]c3ccccc23)cc1",
    "activation / %": 10.2
  },
  {
    "Compound": "O=C1C2C3C=CC(C4CC34)C2C(=O)N1/N=C/c1ccc(-c2ccc(F)cc2[N+](=O)[O-])o1 (stereo not drawn)",
    "activation / %": 23.2
  },
  {
    "Compound": "CCCCNc1nc(-c2ccccc2)nc(-n2ccnc2)n1",
    "activation / %": 15.9
  },
  {
    "Compound": "CC(=O)[C@H]1[C@H](C#N)C[C@H]2[C@@H]3CC=C4C[C@@H](O)CC[C@]4(C)[C@H]3CC[C@@]21C",
    "activation / %": 45.3
  },
  {
    "Compound": "CCN(CC)c1ccc2cc(C(=O)NCc3ccc(F)cc3)c(=N)oc2c1",
    "activation / %": 54.1
  },
  {
    "Compound": "Cc1nn(-c2ccccc2)c(Cl)c1C(=O)NC1CCCCC1",
    "activation / %": 20.7
  },
  {
    "Compound": "CCOC(=O)c1cnc2c(C)c(Cl)ccc2c1N1CCOCC1",
    "activation / %": 80.7
  },
  {
    "Compound": "CSc1ccc(Cl)c(C(=O)NNC(=O)c2csc(N3CCOCC3)n2)c1",
    "activation / %": 9.67
  },
  {
    "Compound": "COc1ccc(C2C(C(=O)c3ccccc3)N3c4ccccc4C=CC3C2[N+](=O)[O-])cc1 (stereo not drawn)",
    "activation / %": 47.8
  },
  {
    "Compound": "O=C(O)c1ccccc1-c1ccc(/C=C2\\SC(=O)N(c3ccccc3)C2=O)o1",
    "activation / %": 9.01
  },
  {
    "Compound": "CCOC(=O)c1cnc2ccccc2c1Nc1ccc(C(=O)O)cc1",
    "activation / %": 161
  },
  {
    "Compound": "CCOC(=O)Nc1ccc(NCc2ccc(F)cc2)nc1N",
    "activation / %": 5.72
  },
  {
    "Compound": "COc1cc2c3nnc(-c4ccc(F)cc4)c-3cn(Cc3cccc(C)c3)c2cc1OC",
    "activation / %": 11.1
  },
  {
    "Compound": "CCCC(CCC(=O)Nc1ccc(S(N)(=O)=O)cc1)C(=O)O (stereo not drawn)",
    "activation / %": 8.1
  },
  {
    "Compound": "CCOc1ccc(C2OC34CCCCC3C(C#N)(C#N)C2(C#N)C(=N)O4)cc1OC (stereo not drawn)",
    "activation / %": 7.44
  },
  {
    "Compound": "COc1ccc(N(CC(=O)Nc2ccccc2C(=O)NCC(C)C)S(C)(=O)=O)cc1",
    "activation / %": 4.96
  },
  {
    "Compound": "C(=N\\Nc1nnnn1-c1ccccc1)/c1ccncc1",
    "activation / %": 6.05
  },
  {
    "Compound": "Cc1ccc(/C=C2/SC(=O)NC2=S)o1",
    "activation / %": 29.6
  }
]
